These measurements were taken from patent US20160297833A1.

# target_or_test_system: human full-length MKNK1 (Homo sapiens, UniProt Q9BUB5, T385D)
# Construct: GST (N); purchased Carna Biosciences 02-145; host or cells: insect cells (baculovirus expression system)
# Sequence (Q9BUB5 1-424 isoform Q9BUB5-2 T344D): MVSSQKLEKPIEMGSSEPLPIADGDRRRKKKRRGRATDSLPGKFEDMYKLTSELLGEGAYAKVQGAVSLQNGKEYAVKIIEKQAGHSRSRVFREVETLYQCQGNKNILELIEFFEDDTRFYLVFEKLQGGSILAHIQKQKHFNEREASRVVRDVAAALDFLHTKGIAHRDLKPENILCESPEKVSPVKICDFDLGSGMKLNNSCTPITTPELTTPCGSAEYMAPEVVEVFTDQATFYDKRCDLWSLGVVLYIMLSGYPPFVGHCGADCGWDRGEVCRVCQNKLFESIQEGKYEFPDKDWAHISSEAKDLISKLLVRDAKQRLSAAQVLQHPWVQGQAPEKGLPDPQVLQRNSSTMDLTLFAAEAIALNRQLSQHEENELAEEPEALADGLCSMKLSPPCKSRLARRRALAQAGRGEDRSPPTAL
# experiment_description: MKNK1 kinase high ATP assay (TR-FRET)
# Format: biochemical
# measurement_parameters: Table 2; ratio of the IC50-value of an R-enantiomer and its corresponding S-enantiomer
Consider the following molecules; for each one, report its Activity-Ratio MKNK1.
Answers are plain numbers.

| smiles_notation | Activity-Ratio MKNK1 |
| --- | --- |
| CCN(C)C(=O)[C@H]1CCc2c(sc3ncnc(Nc4cc5cn[nH]c5cc4OC)c23)C1 | 39.1 |
| CC(C)Oc1cc2[nH]ncc2cc1Nc1ncnc2sc3c(c12)CC[C@H](C(=O)N(C)CC(F)F)C3 | 27.5 |

Ask: Reported Activity-Ratio MKNK1 for `COc1cc2[nH]ncc2cc1Nc1ncnc2sc3c(c12)CC[C@H](C(=O)N(C)C(C)C)C3` : what is it?
Result: 172.9

----------
# target_or_test_system: human full-length MKNK1 (Homo sapiens, UniProt Q9BUB5, T385D)
# Construct: GST (N); purchased Carna Biosciences 02-145; host or cells: insect cells (baculovirus expression system)
# experiment_description: MKNK1 kinase high ATP assay (TR-FRET)
# Assay type: biochemical
# measurement_parameters: Table 1; MKNK1 kinase high ATP assay, 2 mM ATP; read-out: MKNK1 IC50
Consider the following compounds; for each one, report its IC50.
Numbers only, in nM.

Use these answered entries as a reference point.
| smiles_notation | quantity_unit | IC50 |
| --- | --- | --- |
| CSc1cc2[nH]ncc2cc1Nc1ncnc2sc3c(c12)CC[C@H](C(=O)N1CCOCC1)C3 | nM | 2 |
| CN(C)C(=O)[C@H]1CCc2c(sc3ncnc(Nc4cc5cn[nH]c5cc4OCC4CCOCC4)c23)C1 | nM | 23.6 |
| CCN(C(=O)[C@H]1CCc2c(sc3ncnc(Nc4ccc5[nH]ncc5c4)c23)C1)C(C)C | nM | 8.3 |

Ask: Reported IC50 for `CCOc1cc2[nH]ncc2cc1Nc1ncnc2sc3c(c12)CC[C@H](C(=O)N(CCO)CCO)C3` : what is it?
Result: 0.1

----------
# target_or_test_system: human full-length MKNK1 (Homo sapiens, UniProt Q9BUB5, T385D)
# Construct: GST (N); purchased Carna Biosciences 02-145; host or cells: insect cells (baculovirus expression system)
# experiment_description: MKNK1 kinase high ATP assay (TR-FRET)
# Format: biochemical
# measurement_parameters: Table 1; MKNK1 kinase high ATP assay, 2 mM ATP; read-out: MKNK1 IC50
attribute_measured: pIC50
Give bare numbers, as −log10 of the molar value.

Use these answered entries as a reference point.
| smiles_notation | reported_result |
| --- | --- |
| CC(C)Oc1cc2[nH]ncc2cc1Nc1ncnc2sc3c(c12)CC[C@@H](C(=O)N(C)CC(F)F)C3 | 8.09 |
| COc1cc2[nH]ncc2cc1Nc1ncnc2sc3c(c12)CC[C@H](C(=O)N1C[C@@H](C)O[C@@H](C)C1)C3 | 8.92 |
| CC(C)Oc1cc2[nH]ncc2cc1Nc1ncnc2sc3c(c12)CC[C@H](C(=O)N(C)C)C3 | 9.52 |

From here, focus on the item given below.
Ask: Which measured pIC50 belongs to `C[C@@H]1CN(C(=O)[C@H]2CCc3c(sc4ncnc(Nc5cc6cn[nH]c6cc5F)c34)C2)C[C@@H](C)O1` , tested on human full-length MKNK1 (Homo sapiens, UniProt Q9BUB5, T385D)?
Result: 8.43
